The measurements presented in this section are drawn from patent US20160376333A1.

Kindly state Log2 enrichment ratio for each of the entries shown.
system name: T1, Epstein-Barr virus BHRF1 a.a. 1-161 with C-terminal avi-6his tag (Epstein-Barr virus)
T1 construct: also called EBV BHRF1; BHRF1-biotin
T1 chain: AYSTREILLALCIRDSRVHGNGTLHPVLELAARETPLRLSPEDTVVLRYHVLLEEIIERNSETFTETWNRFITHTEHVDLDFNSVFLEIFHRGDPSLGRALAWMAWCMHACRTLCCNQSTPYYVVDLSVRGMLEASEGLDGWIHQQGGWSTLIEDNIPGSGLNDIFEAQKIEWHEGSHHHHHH
test: yeast display library, FACS sort at 400 nM BHRF1, deep sequencing
The reply should contain only the number, in log2.

Requested field: Log2 enrichment ratio. Item: Index 57 (designed binder) GDLKEELKERAKKIIRRALDEAKDAEDLIKKEAEKRYVTTEMATKFVAWWIAGALMIIGDIFNAAREVKERAEKALKWGVLSQDDIKELLLELENLEQEAKERAKEFGEKAEKFKKMG -2.85

Requested field: Log2 enrichment ratio. Item: Index 50 (designed binder) GKRAEELREEAEERAKEAFKETEQKLREVEERSRQTLARDEELRKAALLWIAAALMGIGDLFNKKEKGKEALEKEEKNGKRRTERAEREKERLEKEVSREAQRFKKKGEEEEKKHKYG -3.47

Requested field: Log2 enrichment ratio. Item: Index 39 (designed binder) GKKYLKAARLALYLLWEAYLRGYLNLLLDELEAEFFDPHDERKIRYTINWIADALMLIGDLFNARLKMEKALWELKKEGKLREEDYEKMERLFRKWMELAFKWLEHFREMAEKAKKKG -2.01

Requested field: Log2 enrichment ratio. Item: Index 73 (designed binder) GKDLDEIIDEARKEMDDDADDGKKKAEKLLKLHAGTNHSQDDFNEAHRRWIAVALEEIGDLFNAALRAWRKIEEEIRKNQRRKEEAEKAKEKVSKEYERASRKAAELGKEFEERVEQG -2.27

Requested field: Log2 enrichment ratio. Item: Index 53 (designed binder) GHVAEEEIRRFLRKAEKVLQEARRKMEKRRREAEEHDTTTWLLARGTIEWIADALMLIGDAFNFRREAYIRGELYKKFGLIREDDLKDRLKEADQRLDEFAKKMALFGLELHLRLREG 0.4

Requested field: Log2 enrichment ratio. Item: Index 05 (designed binder) GKDADKKKDEAKKKAEWKEREVFERLEKMEWKKRKDSVSKDDARKFTLKWIADDLELIGDLFNLKEEAREVAEDAARNNQITEEQREEDEKDLEKLAKEHSWRAAYRGKLKAKEFWEG -0.83

Requested field: Log2 enrichment ratio. Item: Index 46 (designed binder) GRDGERVVKWAKNQHENTVDEAKDKMDNQEDEMRKKNADDEKLRKETHKWIAFALEAIGDVFNDAMQAFELLERFKKFGQQEQKKLDEFKEKVERLAREASRKLTYLGKRFALDIESG -3.6

Requested field: Log2 enrichment ratio. Item: Index 15 (designed binder) GNDRDQIEEYHRERMDEELDRAKKRLEELKKLWEKLDGDDLMKFFWTFKWIAESLKIIGDLFNRLLRTWEFAEALKKGIGFDEKKAEEAKERAYERAAEAAWKAAKLSREMREFLLKG -0.71
